Source of measurements: patent US6048874A

# assay details: Apparent equilibrium solubility redetermined, UV analysis
# Format: physicochemical
# assay setup: aqueous propylene glycol/ethanol, organic solvent or mixture, shaken 24 hrs; 65% w/v propylene glycol/15% w/v ethyl alcohol/water; UV 235 nm; read-out: Concentration of Metolazone, UV (apparent equilibrium solubility)
measured metric: solubility thermodynamic at 24 h (µg/mL)
Your answer is read as µg/mL, so omit the unit and give the number.

Look up solubility thermodynamic at 24 h for this compound: Cc1ccccc1N1C(=O)c2cc(S(N)(=O)=O)c(Cl)cc2NC1C (stereo not shown)
8090

###

# assay details: Apparent equilibrium solubility redetermined, HPLC analysis
# Assay type: physicochemical
# assay setup: aqueous propylene glycol/ethanol, organic solvent or mixture, shaken 48 hrs, 65% w/v propylene glycol/15% w/v ethyl alcohol/water, read-out: Concentration of Metolazone, HPLC (apparent equilibrium solubility)
measured metric: solubility thermodynamic at 48 h (µg/mL)
Your answer is read as µg/mL, so omit the unit and give the number.

Look up solubility thermodynamic at 48 h for this compound: Cc1ccccc1N1C(=O)c2cc(S(N)(=O)=O)c(Cl)cc2NC1C (stereo not shown)
7810

###

# assay details: Apparent equilibrium solubility redetermined, UV analysis
# Format: physicochemical
# assay setup: aqueous propylene glycol/ethanol, organic solvent or mixture, shaken 48 hrs; 65% w/v propylene glycol/15% w/v ethyl alcohol/water; UV 235 nm; read-out: Concentration of Metolazone, UV (apparent equilibrium solubility)
measured metric: solubility thermodynamic at 48 h (µg/mL)
Your answer is read as µg/mL, so omit the unit and give the number.

Look up solubility thermodynamic at 48 h for this molecule: Cc1ccccc1N1C(=O)c2cc(S(N)(=O)=O)c(Cl)cc2NC1C (stereo not shown) [Metolazone]
7580

###

# assay details: Apparent equilibrium solubility, spectrophotometric assay at 346 nm
# Assay type: physicochemical
# assay setup: aqueous propylene glycol/ethanol, organic solvent or mixture; aqueous 65% w/v propylene glycol, 15% w/v ethyl alcohol; read-out: apparent equilibrium solubility limit
measured metric: solubility thermodynamic

Look up solubility thermodynamic for this compound: Cc1ccccc1N1C(=O)c2cc(S(N)(=O)=O)c(Cl)cc2NC1C (stereo not shown)
~8000 µg/mL

###

# assay details: Apparent equilibrium solubility redetermined, HPLC analysis
# Format: physicochemical
# assay setup: aqueous propylene glycol/ethanol, organic solvent or mixture, shaken 24 hrs, 65% w/v propylene glycol/15% w/v ethyl alcohol/water, read-out: Concentration of Metolazone, HPLC (apparent equilibrium solubility)
# Procedure: The apparent equilibrium solubility was redetermined more accurately as follows. A 300 g quantity of ethyl alcohol (95% v/v in water) and 1300 g of propylene glycol were added to a 2000 ml volumetric flask and mixed well. […] Nine 30 ml amber bottles were filled with 25 ml of the solvent and 400 mg of metolazone and mixed on a wrist arm shaker for 24 hours (3 bottles), 48 hours (3 bottles), and 72 hours (3 bottles). […] The concentration of the samples was determined by HPLC and by UV analysis. […]
measured metric: solubility thermodynamic at 24 h (µg/mL)
Your answer is read as µg/mL, so omit the unit and give the number.

Look up solubility thermodynamic at 24 h for this compound: Cc1ccccc1N1C(=O)c2cc(S(N)(=O)=O)c(Cl)cc2NC1C (stereo not shown) [Metolazone]
7900

###

# assay details: Apparent equilibrium solubility redetermined, UV analysis
# Format: physicochemical
# assay setup: aqueous propylene glycol/ethanol, organic solvent or mixture, shaken 72 hrs; 65% w/v propylene glycol/15% w/v ethyl alcohol/water; UV 235 nm; read-out: Concentration of Metolazone, UV (apparent equilibrium solubility)
measured metric: solubility thermodynamic at 72 h (µg/mL)
Your answer is read as µg/mL, so omit the unit and give the number.

Look up solubility thermodynamic at 72 h for this compound: Cc1ccccc1N1C(=O)c2cc(S(N)(=O)=O)c(Cl)cc2NC1C (stereo not shown) [Metolazone]
7300
